Kindly state inhibition zone (IZ) for each of the entries shown.
Tested on: Escherichia coli
PROTOCOL TEXT: Antibacterial activity against Escherichia coli MTCC 1089 after 24 hr by disk diffusion method
Assay type: functional
Answers are plain numbers, in mm.

{"columns": ["SMI", "RECORDED NUMBER"],
 "data": [
  ["CC(=O)Nc1cccc(OCc2cc(=O)oc3ccc(C)cc23)c1", 11]
]}

Need inhibition zone (IZ) for each of these compounds.
1. CC(=O)Nc1cccc(OCc2cc(=O)oc3cc(C)ccc23)c1
2. O=c1cc(COc2cccc(O)c2)c2cc(Cl)ccc2o1

10
17

# per-item lookup of inhibition zone (IZ); items listed below
1. CCN(CC)c1cccc(OCc2cc(=O)oc3ccc(Cl)cc23)c1
2. CCN(CC)c1cccc(OCc2cc(=O)oc3cc(C)ccc23)c1
3. COc1ccc2oc(=O)cc(COc3cccc(OCc4cc(=O)oc5ccc(OC)cc45)c3)c2c1

15
9
17

Data provenance: ChEMBL document CHEMBL3046568
